TARGET_OF_ASSAY: POU2 (OCT2 POU domain) (human, UniProt P09086 175-386)
Sequence: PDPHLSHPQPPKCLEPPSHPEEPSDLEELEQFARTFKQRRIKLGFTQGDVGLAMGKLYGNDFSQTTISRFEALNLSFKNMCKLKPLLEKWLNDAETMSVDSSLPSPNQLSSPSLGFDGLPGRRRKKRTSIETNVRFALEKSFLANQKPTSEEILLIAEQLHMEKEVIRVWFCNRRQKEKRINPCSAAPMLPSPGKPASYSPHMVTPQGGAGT
TEST: EMSA-SELEX-seq; no BOB1; 20 mM Tris-HCl pH 7.6, 140 mM NaCl, 10% glycerol, 0.5 mM EDTA, 0.05% Triton X-100, 0.1 mg/mL BSA, 0.1 mg/mL poly(dI-dC), 5 mM DTT, room temperature, 20 min; high values mean tight binding
CONDITION_SET: protein: recombinant; dsDNA, one strand shown
List of binding signal values.
OBSERVATION_TYPE: binding signal

[
  {
    "INPUT_SEQUENCE": "AACTGAAG",
    "MEAS_VALUE": "0.0391 % of ANNNNAAN 8-mers"
  },
  {
    "INPUT_SEQUENCE": "ACCTGAAA",
    "MEAS_VALUE": "0.0247 % of ANNNNAAN 8-mers"
  },
  {
    "INPUT_SEQUENCE": "AGTGTAAA",
    "MEAS_VALUE": "0.0667 % of ANNNNAAN 8-mers"
  },
  {
    "INPUT_SEQUENCE": "AGCCAAAA",
    "MEAS_VALUE": "0.038 % of ANNNNAAN 8-mers"
  },
  {
    "INPUT_SEQUENCE": "ATTCCAAG",
    "MEAS_VALUE": "0.0512 % of ANNNNAAN 8-mers"
  },
  {
    "INPUT_SEQUENCE": "AAGACAAG",
    "MEAS_VALUE": "0.0305 % of ANNNNAAN 8-mers"
  },
  {
    "INPUT_SEQUENCE": "AGTACAAA",
    "MEAS_VALUE": "0.0328 % of ANNNNAAN 8-mers"
  },
  {
    "INPUT_SEQUENCE": "AAAAGAAG",
    "MEAS_VALUE": "0.076 % of ANNNNAAN 8-mers"
  },
  {
    "INPUT_SEQUENCE": "ATGTTAAC",
    "MEAS_VALUE": "0.0938 % of ANNNNAAN 8-mers"
  },
  {
    "INPUT_SEQUENCE": "ATCTCAAC",
    "MEAS_VALUE": "0.027 % of ANNNNAAN 8-mers"
  },
  {
    "INPUT_SEQUENCE": "ATATCAAT",
    "MEAS_VALUE": "0.139 % of ANNNNAAN 8-mers"
  },
  {
    "INPUT_SEQUENCE": "AAGAGAAG",
    "MEAS_VALUE": "0.0403 % of ANNNNAAN 8-mers"
  },
  {
    "INPUT_SEQUENCE": "ACTAAAAT",
    "MEAS_VALUE": "0.0714 % of ANNNNAAN 8-mers"
  },
  {
    "INPUT_SEQUENCE": "ATTAGAAA",
    "MEAS_VALUE": "0.106 % of ANNNNAAN 8-mers"
  },
  {
    "INPUT_SEQUENCE": "AAGGAAAT",
    "MEAS_VALUE": "0.157 % of ANNNNAAN 8-mers"
  },
  {
    "INPUT_SEQUENCE": "AACGCAAA",
    "MEAS_VALUE": "0.0978 % of ANNNNAAN 8-mers"
  },
  {
    "INPUT_SEQUENCE": "AACTGAAT",
    "MEAS_VALUE": "0.108 % of ANNNNAAN 8-mers"
  },
  {
    "INPUT_SEQUENCE": "AGTGGAAA",
    "MEAS_VALUE": "0.0512 % of ANNNNAAN 8-mers"
  },
  {
    "INPUT_SEQUENCE": "AACGAAAT",
    "MEAS_VALUE": "0.0783 % of ANNNNAAN 8-mers"
  },
  {
    "INPUT_SEQUENCE": "AGATGAAT",
    "MEAS_VALUE": "0.171 % of ANNNNAAN 8-mers"
  },
  {
    "INPUT_SEQUENCE": "AAAGAAAG",
    "MEAS_VALUE": "0.0719 % of ANNNNAAN 8-mers"
  },
  {
    "INPUT_SEQUENCE": "ACAATAAT",
    "MEAS_VALUE": "0.0978 % of ANNNNAAN 8-mers"
  },
  {
    "INPUT_SEQUENCE": "AACGGAAT",
    "MEAS_VALUE": "0.0949 % of ANNNNAAN 8-mers"
  },
  {
    "INPUT_SEQUENCE": "ATTGGAAT",
    "MEAS_VALUE": "0.18 % of ANNNNAAN 8-mers"
  },
  {
    "INPUT_SEQUENCE": "AGCATAAA",
    "MEAS_VALUE": "0.213 % of ANNNNAAN 8-mers"
  },
  {
    "INPUT_SEQUENCE": "AGACTAAT",
    "MEAS_VALUE": "0.102 % of ANNNNAAN 8-mers"
  },
  {
    "INPUT_SEQUENCE": "AATCGAAT",
    "MEAS_VALUE": "0.0926 % of ANNNNAAN 8-mers"
  },
  {
    "INPUT_SEQUENCE": "AGGGCAAG",
    "MEAS_VALUE": "0.0322 % of ANNNNAAN 8-mers"
  },
  {
    "INPUT_SEQUENCE": "ATGAGAAT",
    "MEAS_VALUE": "0.134 % of ANNNNAAN 8-mers"
  },
  {
    "INPUT_SEQUENCE": "AGAGCAAC",
    "MEAS_VALUE": "0.0115 % of ANNNNAAN 8-mers"
  },
  {
    "INPUT_SEQUENCE": "AGGCCAAC",
    "MEAS_VALUE": "0.0115 % of ANNNNAAN 8-mers"
  },
  {
    "INPUT_SEQUENCE": "ATGCGAAA",
    "MEAS_VALUE": "0.0926 % of ANNNNAAN 8-mers"
  },
  {
    "INPUT_SEQUENCE": "AAGCTAAG",
    "MEAS_VALUE": "0.0322 % of ANNNNAAN 8-mers"
  },
  {
    "INPUT_SEQUENCE": "ACACCAAC",
    "MEAS_VALUE": "0.0127 % of ANNNNAAN 8-mers"
  },
  {
    "INPUT_SEQUENCE": "AGTTCAAA",
    "MEAS_VALUE": "0.0357 % of ANNNNAAN 8-mers"
  },
  {
    "INPUT_SEQUENCE": "ATTCGAAG",
    "MEAS_VALUE": "0.0656 % of ANNNNAAN 8-mers"
  },
  {
    "INPUT_SEQUENCE": "AATGAAAC",
    "MEAS_VALUE": "0.0719 % of ANNNNAAN 8-mers"
  }
]
